# Test system: K562
# assay.summary: Cytotoxicity against paclitaxel-resistant human K562 cells after 72 hrs by MTT assay
# Assay type: functional, cell-based
# condition.parameters: K562, 72 h
reported.endpoint: pIC50
Note on units: pIC50 is unitless, being -log10 of a concentration expressed in mol/L.

A selection of reference data follows.
[
  {
    "compound": "C=C(C)[C@@H]1CC[C@]2(C(=O)O)CC[C@]3(C)[C@H](CC[C@@H]4[C@@]5(C)C=C(O)C(=O)C(C)(C)[C@@H]5CC[C@]43C)[C@@H]12",
    "tested.target": "K562",
    "result.number": 4.96
  },
  {
    "compound": "C=C(C)[C@@H]1CC[C@]2(C(=O)OC)CC[C@]3(C)[C@H](CC[C@@H]4[C@@]5(C)CC[C@H](O)C(C)(C)[C@@H]5CC[C@]43C)[C@@H]12 [METHYL BETULINATE]",
    "tested.target": "K562",
    "result.number": 4.19
  },
  {
    "compound": "C=C(C)[C@@H]1CC[C@]2(C(=O)O)CC[C@]3(C)[C@H](CC[C@@H]4[C@@]5(C)CC[C@H](OC(C)=O)C(C)(C)[C@@H]5CC[C@]43C)[C@@H]12",
    "tested.target": "K562",
    "result.number": 4.72
  },
  {
    "compound": "C=C(C)[C@@H]1CC[C@]2(C(=O)OC)CC[C@]3(C)[C@H](CC[C@@H]4[C@@]5(C)CC(=O)OC(=O)C(C)(C)[C@@H]5CC[C@]43C)[C@@H]12",
    "tested.target": "K562",
    "result.number": 4.92
  },
  {
    "compound": "C=C(C)[C@@H]1CC[C@]2(C(=O)OC)CC[C@]3(C)[C@H](CC[C@@H]4[C@@]5(C)CC[C@H](OC(C)=O)C(C)(C)[C@@H]5CC[C@]43C)[C@@H]12",
    "tested.target": "K562",
    "result.number": 3.60
  },
  {
    "compound": "C=C(C)[C@@H]1CC[C@]2(C(=O)OC(C)=O)CC[C@]3(C)[C@H](CC[C@@H]4[C@@]5(C)CC[C@H](OC(C)=O)C(C)(C)[C@@H]5CC[C@]43C)[C@@H]12",
    "tested.target": "K562",
    "result.number": 3.97
  },
  {
    "compound": "C=C(C)[C@@H]1CC[C@]2(C(=O)OC)CC[C@]3(C)[C@H](CC[C@@H]4[C@@]5(C)C=C(OC)C(=O)C(C)(C)[C@@H]5CC[C@]43C)[C@@H]12",
    "tested.target": "K562",
    "result.number": 5.00
  },
  {
    "compound": "C=C(C)[C@@H]1CC[C@]2(C(=O)OC)CC[C@]3(C)[C@H](CC[C@@H]4[C@@]5(C)C=C(OC(C)=O)C(=O)C(C)(C)[C@@H]5CC[C@]43C)[C@@H]12",
    "tested.target": "K562",
    "result.number": 4.60
  },
  {
    "compound": "C=C(C)[C@@H]1CC[C@]2(CO)CC[C@]3(C)[C@H](CC[C@@H]4[C@@](C)(CCO)[C@H](C(C)(C)CO)CC[C@]43C)[C@@H]12",
    "tested.target": "K562",
    "result.number": 4.96
  },
  {
    "compound": "C=C(C)[C@@H]1CC[C@]2(C(=O)O)CC[C@]3(C)[C@H](CC[C@@H]4[C@@]5(C)[C@@H](O)OC(=O)C(C)(C)[C@@H]5CC[C@]43C)[C@@H]12",
    "tested.target": "K562",
    "result.number": 4.09
  }
]

The record that follows has no pIC50 shown yet.
Req: Quick one: pIC50 for C=C(C)[C@@H]1CC[C@]2(C(=O)O)CC[C@]3(C)[C@H](CC[C@@H]4[C@@]5(C)CC[C@H](O)C(C)(C)[C@@H]5CC[C@]43C)[C@@H]12 ?
Resp: 3.95
